# tgt: CDK2/CyclinE1 (Homo sapiens (Human), UniProt P24941)
# assay remarks: CDK2/CyclinE1 kinase inhibitory activity (Caliper mobility shift)
# condition info: read-out: CDK2/Cyclin El IC50
pIC50: −log10 of the molar value.
recorded metric: pIC50

Reference set, count: 6
CC(C)NS(=O)(=O)c1ccc(Nc2ncc(C#N)c(OC3CCC[C@H]3O)n2)cc1 (mixture of isomers) = > 8.00
CC1(COc2nc(NC3CCN(S(C)(=O)=O)CC3)ncc2C#N)CCC1 = > 8.00
N#Cc1cnc(Nc2ccc(S(N)(=O)=O)cc2)nc1N1CCCC(c2ccccc2)C1 (single isomer, unassigned) [Example 85] = > 8.00
NS(=O)(=O)c1ccc(Nc2ncc(C(F)(F)F)c(OC3CCCCC3O)n2)cc1 (single isomer, unassigned) [Example 111b] = > 8.00
Cc1cnc(Nc2ccc(S(=O)(=O)NC(C)C)cc2)nc1OC1CCCC1O (single isomer, unassigned) [Example 147b] = 7.00 to 8.00
[2H]C1([2H])CC(O)C(Oc2nc(Nc3ccc(S(=O)(=O)NC([2H])([2H])[2H])cc3)ncc2C(F)(F)F)C1 (single isomer, unassigned) [Example 110b] = > 8.00

Entry N#Cc1cnc(Nc2ccc(S(N)(=O)=O)cc2)nc1-c1cccc(C2CC2)c1 , tested on CDK2/CyclinE1 (Homo sapiens (Human), UniProt P24941), has a reported pIC50 of 7.00 to 8.00

Taken from patent US20240166635A1.
